All values here come from ChEMBL document CHEMBL5154926.

System: DLD-1
assay-overview: cells
measurement-conditions: Homo sapiens, DLD-1, 48 h
Description: Antiproliferative activity against human DLD-1 cells incubated for 48 hrs by CCK-8 assay
endpoint-label: pIC50
Scale for pIC50: -log10 of concentration given in mol/L; no unit attached.

A selection of reference data follows.
>>> print(df.to_string())
                                   molecule  value_measured
0  O=c1nc2n(c3c1CN(Cc1ccccc1)CC3)CCN2Cc1ccc(F)cc1            7.05
1  Cc1ccccc1CN1CCn2c1nc(=O)c1c2CCN(Cc2ccccc2)C1            6.28
2  O=c1nc2n(c3c1CN(Cc1ccccc1)CC3)CCN2Cc1ccc(F)cc1F            7.05
3  O=c1nc2n(c3c1CN(Cc1ccccc1)CC3)CCN2Cc1ccc(Cl)cc1            7.00

Switching to the query record.
Requested field: pIC50. Item: "O=c1nc2n(c3c1CN(Cc1ccccc1)CC3)CCN2Cc1ccc(F)c(F)c1"
6.82

---

study-system: ATP-dependent Clp protease proteolytic subunit, mitochondrial (Homo sapiens)
assay-overview: Agonist activity at human CLpP (57 to 277 amino acids) expressed in Escherichia coli using fluorogenic peptide AC-WLA-AMC as substrate incubated for 10 mins by fluorescence based assay
Examples of molecules with documented pEC50 follow.
Scale for pEC50: -log10 of concentration given in mol/L; no unit attached.

A selection of reference data follows.
>>> df
                                   molecule                              study_system  value_measured
0  COc1ccc(CN2CCn3c2nc(=O)c2c3CCN(Cc3ccccc3)C2)cc1  ATP-dependent Clp protease proteolytic subunit, mitochondrial (Homo sapiens)            6.30
1  Cc1ccccc1CN1CCn2c1nc(=O)c1c2CCN(Cc2ccncc2)C1  ATP-dependent Clp protease proteolytic subunit, mitochondrial (Homo sapiens)            5.79
2  Cc1ccccc1CN1CCn2c1nc(=O)c1c2CCN(Cc2ccc(F)cc2F)C1  ATP-dependent Clp protease proteolytic subunit, mitochondrial (Homo sapiens)            6.01
3  O=c1nc2n(c3c1CN(Cc1ccccc1)CC3)CCN2Cc1ccco1  ATP-dependent Clp protease proteolytic subunit, mitochondrial (Homo sapiens)            5.75

Switching to the query record.
Given the entry "Cc1ccccc1CN1CCn2c1nc(=O)c1c2CCN(Cc2cccnc2)C1" , what pEC50 was observed with ATP-dependent Clp protease proteolytic subunit, mitochondrial (Homo sapiens)?
5.79

---

assay-overview: Stability in rat liver microsomes assessed as half life at 1.5 uM measured upto 90 mins in presence of NADPH by LC/MS analysis
Type: ADME, Microsome
measurement-conditions: 1.5 h
endpoint-label: t1/2 (min)
Output spec: scalar in min, unitless text.

A selection of reference data follows.
>>> df
                                   molecule  endpoint_label  unit_of_measure  value_measured
0  O=c1nc2n(c3c1CN(Cc1ccccc1)CC3)CCN2Cc1ccc(F)c(Br)c1            t1/2              min            16.1
1  Cc1ccccc1CN1C(=O)C2=C(CCN(Cc3ccccc3)C2)N2CCN=C12            t1/2              min            10.5

Requested field: t1/2. Item: "O=C(c1ccc(F)cc1)C1CCN(CCn2c(=O)[nH]c3ccccc3c2=O)CC1"
18.5

---

study-system: ATP-dependent Clp protease proteolytic subunit, mitochondrial (Homo sapiens, UniProt Q16740)
Sequence (Q16740 whole entry, the tested form may be a part): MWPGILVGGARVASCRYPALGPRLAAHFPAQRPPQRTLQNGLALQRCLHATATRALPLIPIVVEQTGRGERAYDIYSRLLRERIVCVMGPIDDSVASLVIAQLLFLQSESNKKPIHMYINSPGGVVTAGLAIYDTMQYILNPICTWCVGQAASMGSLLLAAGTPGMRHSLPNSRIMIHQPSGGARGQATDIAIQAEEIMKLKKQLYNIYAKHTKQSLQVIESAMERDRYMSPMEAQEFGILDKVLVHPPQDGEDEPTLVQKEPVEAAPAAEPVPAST
assay-overview: Agonist activity at human CLpP (57 to 277 amino acids) expressed in Escherichia coli using fluorogenic peptide AC-WLA-AMC as substrate incubated for 10 mins by fluorescence based assay
Examples of compounds with documented pEC50 follow.
Scale for pEC50: -log10 of concentration given in mol/L; no unit attached.

A selection of reference data follows.
>>> print(df.to_string())
                                   molecule  value_measured
0  Cc1ccccc1CN1CCn2c1nc(=O)c1c2CCN(CC2CCCCC2)C1            5.62
1  Cc1ccc(CN2CCn3c2nc(=O)c2c3CCN(Cc3ccccc3)C2)cc1            6.49
2  Cc1ccccc1CN1CCCn2c1nc(=O)c1c2CCN(Cc2ccccc2)C1            5.45
3  Cc1ccc(CN2CCc3c(c(=O)nc4n3CCN4Cc3ccccc3C)C2)cc1            6.19
4  O=c1nc2n(c3c1CN(Cc1ccccc1)CC3)CCN2CC1CC1            5.91

Requested field: pEC50. Item: "O=c1nc2n(c3c1CN(Cc1ccccc1)CC3)CCN2Cc1ccccc1F"
6.36

Requested field: pEC50. Item: "Cc1ccccc1CN1CCn2c1nc(=O)c1c2CCN(Cc2ccc(F)cc2)C1"
6.19

Requested field: pEC50. Item: "O=c1nc2n(c3c1CN(Cc1ccccc1)CC3)CCN2Cc1ccccc1Cl"
6.72

---

assay-overview: Cmax in Sprague-Dawley rat plasma at 5 mg/kg, iv after 0.083 to 24 hrs by LC-MS analysis
Type: ADME, organism-based
Parameters: dose 5 mg/kg, time 0.083-24 hrs, route iv
endpoint-label: Cmax (ng/mL)
Output spec: scalar in ng/mL, unitless text.

                                   molecule  value_measured
0  Cc1ccccc1CN1C(=O)C2=C(CCN(Cc3ccccc3)C2)N2CCN=C12.Cl.Cl.O            2770

Switching to the query record.
Requested field: Cmax. Item: "Cl.Cl.O.O=c1nc2n(c3c1CN(Cc1ccccc1)CC3)CCN2Cc1ccc(F)c(Br)c1"
4010

---

Test system: U-251
assay-overview: Antiproliferative activity against human U-251 cells incubated for 48 hrs by CCK-8 assay
Assay type: functional, cell-based
measurement-conditions: U-251, 48 h
endpoint-label: IC50 (nM)
Output spec: scalar in nM, unitless text.

Given the entry "Cc1ccccc1CN1CCn2c1nc(=O)c1c2CCN(Cc2ccccc2)C1" , what IC50 was observed with U-251?
2060

---

assay-overview: Terminal half life in Sprague-Dawley rat plasma at 15 mg/kg, po after 0.25 to 24 hrs by LC-MS analysis
Assay type: ADME, organism-based
measurement-conditions: time 0.25-24 hrs, read-out: beta t1/2 (converted)
Examples of molecules with documented half-life follow.
Output spec: scalar in min, unitless text.

                                   molecule  endpoint_label  value_measured
0  Cl.Cl.O.O=c1nc2n(c3c1CN(Cc1ccccc1)CC3)CCN2Cc1ccc(F)c(Br)c1       half-life            61.8

Switching to the query record.
Requested field: half-life. Item: "Cc1ccccc1CN1C(=O)C2=C(CCN(Cc3ccccc3)C2)N2CCN=C12.Cl.Cl.O"
63

---

assay-overview: Antiproliferative activity against human HEK293 cells incubated for 48 hrs by CCK-8 assay
Format: toxicity, cell-based
endpoint-label: IC50 at 48 h

Requested field: IC50 at 48 h. Item: "Cc1ccccc1CN1CCn2c1nc(=O)c1c2CCN(Cc2ccccc2)C1"
> 50 µM

---

assay-overview: Terminal half life in Sprague-Dawley rat plasma at 5 mg/kg, iv after 0.083 to 24 hrs by LC-MS analysis
Format: ADME, organism-based
measurement-conditions: time 0.083-24 hrs, read-out: beta t1/2 (converted)
Examples of compounds with documented half-life follow.
Output spec: scalar in h, unitless text.

                                   molecule  endpoint_label  value_measured
0  Cc1ccccc1CN1C(=O)C2=C(CCN(Cc3ccccc3)C2)N2CCN=C12.Cl.Cl.O       half-life            0.91

Requested field: half-life. Item: "Cl.Cl.O.O=c1nc2n(c3c1CN(Cc1ccccc1)CC3)CCN2Cc1ccc(F)c(Br)c1"
1.27

---

Examples of compounds with documented solubility at 24 h follow.
assay-overview: Aqueous solubility of the compound agitated for 24 hrs by HPLC analysis
Format: physicochemical
measurement-conditions: buffer
Output spec: scalar in µM, unitless text.

In [3]: df
Out[3]:
                                   molecule  value_measured
0  Cc1ccccc1CN1C(=O)C2=C(CCN(Cc3ccccc3)C2)N2CCN=C12             200

Switching to the query record.
Requested field: solubility at 24 h. Item: "O=c1nc2n(c3c1CN(Cc1ccccc1)CC3)CCN2Cc1ccc(F)c(Br)c1"
100

---

Examples of compounds with documented MRT last follow.
assay-overview: MRT (0 to 24 hrs) in Sprague-Dawley rat plasma at 15 mg/kg, po after 0.25 to 24 hrs by LC-MS analysis
Type: ADME, organism-based
measurement-conditions: time 0.25-24 hrs
Output spec: scalar in h, unitless text.

                                   molecule  unit_of_measure  value_measured
0  Cl.Cl.O.O=c1nc2n(c3c1CN(Cc1ccccc1)CC3)CCN2Cc1ccc(F)c(Br)c1                h            1.29

Requested field: MRT last. Item: "Cc1ccccc1CN1C(=O)C2=C(CCN(Cc3ccccc3)C2)N2CCN=C12.Cl.Cl.O"
1.46
